viability listing for selected molecules.
Assay: reversal of MRP1-mediated doxorubicin resistance, pilot screen, H69AR cells, doxorubicin co-treatment (AID 601)
Settings: H69AR cells, CellTiter-Glo, 72 h; compound alone cytotoxicity; at 10 µM

MOLECULE	viability (%)
COc1ccc(C2NC(c3ccc(OC)c(OC)c3OC)C(C)C(=O)C2C)c(OC)c1OC (stereo unspecified)	92.4
CCS(=O)(=O)c1ccc(S(=O)(=O)CC)s1	104
Cc1nc(Sc2cccn2C)c(C(F)(F)F)c(=O)[nH]1	96.3
CNC(=O)OC(C)CNS(=O)(=O)c1ccc(C)cc1 (stereo unspecified)	97
CCN(CC)C(=O)C1=C(C)NC(=O)NC1c1c(F)cccc1Cl (stereo unspecified)	101
COC(=O)Cn1c(=O)c2c(nc(Br)n2CC(=O)OC)n(C)c1=O	86.5
COc1cccc(C(=O)Nc2cc(NC(=O)c3ccco3)ccc2OC)c1	80.6
CC(C)(C)NC(=O)CN(C(=O)CS(=O)CC(=O)Nc1ccc(F)cc1)c1ccc(Cl)cc1 (stereo unspecified)	98.9
Cc1ccc(NC(=O)CC2Nc3ccccc3NC2=O)cc1Cl (stereo unspecified)	27.8
O=C(CSc1ncn[nH]1)NC1CC2CCC1C2 (stereo unspecified)	98
Cc1cc(C(=O)N2CCCc3ccccc32)no1	105
CC(=O)Nc1ccc(S(=O)(=O)N(C2=NCC(C)S2)c2ccccc2)cc1 (stereo unspecified)	91.7
O=C(c1ccco1)N1CCN(c2nc(C(F)(F)F)nc3c2nnn3Cc2ccccc2)CC1	73.3
CCN1CCN(c2nc3c(c(=O)n(C)c(=O)n3C)n2Cc2cccc3ccccc23)CC1	87.7
CCOC(=O)CSC1=Nc2ccccc2C2=NC(CC(=O)NCc3cccs3)C(=O)N12 (stereo unspecified)	91.7
Cc1ccc(S(=O)(=O)NCC(=O)OCC(=O)Nc2ncc(Cl)cc2Cl)cc1	99.6

====

viability listing for selected compounds.
Test: reversal of MRP1-mediated doxorubicin resistance, pilot screen, H69AR cells, doxorubicin co-treatment (AID 601)
Conditions: H69AR cells + 2 uM doxorubicin, CellTiter-Glo, 72 h; measured here: viability with 2 uM doxorubicin; at 10 µM; stronger effect = lower value

COMPOUND	viability, %
CC(C)CCNC(=O)NC(=O)CSc1nnc(-c2ccccc2Br)o1	101
CN1CC=C2C(C#N)=C(N)C(C#N)(C#N)C(c3cccc(Cl)c3Cl)C2C1 (stereo unspecified)	60.1
CCOC(=O)c1c(C)oc2c1c(C(c1ccncc1)N1CCOCC1)c(O)c1ccccc12 (stereo unspecified)	6.38
CCOC(=O)c1cc(C(C)(C)C)oc1CN	92.5
COc1ccccc1C(=O)Nc1c2c(nn1-c1cccc(C)c1C)CS(=O)(=O)C2	72.3
CN(C)CCOC(=O)C(c1ccccc1)C1(O)CCCC1 (stereo unspecified)	97

====

differential viability (reversal) listing for selected compounds.
Assay: reversal of MRP1-mediated doxorubicin resistance, pilot screen, H69AR cells, doxorubicin co-treatment (AID 601)
Conditions: H69AR cells + 2 uM doxorubicin, CellTiter-Glo, 72 h; at 10 µM; stronger effect = higher value
METRIC: differential viability (reversal) (%)

1) CCOC(=O)c1oc2cc(OCC(N)=O)ccc2c(=O)c1-c1ccc(OC)c(OC)c1 -2.63
2) O=C(Cn1c(=O)oc2ccccc21)N1CCN(c2ccccc2)CC1 -3.33
3) c1cnc(NCCNc2ncccn2)nc1 10.7
4) CS(=O)(=O)N(CC(=O)NC1CC1)c1cccc(F)c1 5.87
5) CCn1c(Cc2ccccc2)nnc1SCC(=O)Nc1nc2ccccc2s1 4.48
6) C[C@]12C=CC(=O)C=C1CC[C@@H]1[C@@H]2[C@@H](O)C[C@@]2(C)[C@H]1CC[C@]2(O)C(=O)COC(=O)CCC(=O)O 2.96
7) CC(=O)c1ccccc1Oc1nc(CN2CCOCC2)nc2scc(-c3cccs3)c12 32.8

====

Assay: growth inhibitors of H69AR lung tumor, primary screen, human, duplicate replicates (AID 580);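 note: 100% = mean luminescence of untreated wells and 0% = no signal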
Conditions: H69AR lung tumor cells viability, ATP luminescence, 72 h; at 10 µM; stronger effect = lower value
viability listing for selected molecules.
METRIC: viability (%)

1. CCn1cc(C(=O)NCc2ccco2)c(=O)c2cc(F)c(N3CCN(C(=O)c4ccco4)CC3)cc21 58.6
2. O=C(CSCc1ccc(F)cc1)NC1CCCC1 95.8
3. O=C(CSc1nccn1Cc1ccccc1)Nc1nccs1 108
4. O=C(CP(=O)(c1ccccc1)c1ccccc1)N1CCCCC1 106

====

Assay: HUVEC growth inhibition – cell-based, human, primary screen (AID 575);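 note: 100% = median of untreated cell wells with 0.1% DMSO on each plate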
Conditions: HUVEC proliferation, CellTiter-Glo luminescence, 72 h; at 10 µM
Active and inactive are the calls of the source.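 Rule for the calls: active = viability at or below 30% in both replicate assays; inconclusive = viability at or below 30% in just one of the two assays; inactive = the rest.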
Labels: 1 (yes) = active, 0 (no) = inactive

COMPOUND	LABEL_CLASS
Cc1cc(C)n2nc(SCC(=O)N(C)Cc3ccccc3)nc2n1	0 (no)
COc1cc2[nH]c3c(=O)n(CCN(C(C)C)C(C)C)cnc3c2cc1OC	0 (no)
Clc1cccc(-c2nn3c(Cn4cnc5ccccc54)nnc3s2)c1	0 (no)
CC(=O)c1ccc(N2CCN(C(=O)c3cc(C)on3)CC2)cc1	0 (no)
COc1ccc(C2C(C#N)=C(N)Oc3cc4c(cc32)OCO4)cc1 (configuration not stated)	0 (no)
COc1ccccc1CNS(=O)(=O)c1cccc(S(=O)(=O)N2CCOCC2)c1	0 (no)
CC(=O)Nc1ccc2nc(-c3cccnc3)[nH]c2c1	0 (no)
CCN(CC(=O)NC(=O)NCc1ccco1)Cc1nc2ccccc2c(=O)[nH]1	0 (no)
O=C(CSc1ncnc2ccccc12)N1CCN(c2ccccc2)CC1	0 (no)
CCCc1[nH]nc2c1C(c1cn[nH]c1-c1ccc(F)cc1)C(C#N)=C(N)O2 (configuration not stated)	0 (no)
N#CC1=C(N)n2c(s/c(=C\c3ccco3)c2=O)=C(C#N)C1c1ccco1 (configuration not stated)	0 (no)
O=C(COc1ccccc1)N1CCN(c2ncnc3c2cnn3-c2ccccc2)CC1	0 (no)
CCOC(=O)N1CCC(n2c(SCC(=O)NCc3ccco3)nc3ccsc3c2=O)CC1	0 (no)
CCOC(=O)n1c(=O)oc2cc(S(=O)(=O)N3CCCCC3)ccc21	0 (no)
COc1cccc(-n2c(C)nc3c(cnn3-c3ccc(Cl)cc3)c2=O)c1	0 (no)
CCCCC(CC)Cn1c2nc3ccccc3nc2c2c(=N)oc(C)nc21 (configuration not stated)	1 (yes)
COc1cccc(C(=O)Nc2cc(NC(=O)c3ccco3)ccc2OC)c1	0 (no)
CCN(CC)S(=O)(=O)c1cccc(-c2nnc(SCCOc3ccccc3C)o2)c1	0 (no)
CCc1nn(CC(=O)N2CCN(Cc3ccc4c(c3)OCO4)CC2)c(=O)c2cc3occc3n12	0 (no)
CN(C)c1cccc(C(=O)OCC(=O)NCc2ccco2)c1	0 (no)
O=C(CN1C(=O)c2cccc3cccc1c23)Nc1ccccc1C(=O)NCc1ccco1	0 (no)
CC(O)Cn1cnc2c1c(=O)n(C)c(=O)n2C (configuration not stated)	0 (no)
CC(=O)c1ccc2c3c(cccc13)C(=O)N(c1c(C)nn(C)c1C)C2=O	0 (no)
COc1ccc(Cn2c(=O)[nH]c3cc(C(=O)NCCCN4CCCC4)ccc3c2=O)cc1	0 (no)
COc1ccc(C(=O)NCCc2nnc(SCc3nc4ccccc4c(=O)[nH]3)n2C)cc1	0 (no)
O=c1c2ccccc2c(C=Nc2ccc(Cl)cn2)c(O)n1-c1cc(Cl)ccc1N1CCOCC1	0 (no)
Cc1ccc(OCc2nnc(SCC(=O)N3CCOCC3)n2C)cc1	0 (no)
COCCNC(=S)c1ccc(OC)cc1	0 (no)
CCc1ccccc1NC(=O)c1ccoc1C	0 (no)
C1=C(CCNc2ncnc3c2cnn3-c2ccccc2)CCCC1	0 (no)
C[N+](C)(C)CCOP(=O)([O-])OC[C@H](O)CO	0 (no)
CC1CN(S(=O)(=O)c2ccc(Cl)c(C(F)(F)F)c2)CC(C)O1 (configuration not stated)	0 (no)
CCOc1nc(-c2ccccc2O)nc2ccccc12	0 (no)
S=c1[nH]c2ccc(Cl)cc2[nH]1	0 (no)
COc1ccc(NS(=O)(=O)c2ccc(N)cc2)nn1	0 (no)
CC(=O)O[C@]1(C(C)=O)CC[C@H]2[C@@H]3C[C@H](C)C4=CC(=O)CC[C@]4(C)[C@H]3CC[C@@]21C	0 (no)
COC(=O)c1ccccc1S(=O)(=O)N(Cc1cc2cc3c(cc2[nH]c1=O)OCO3)C1CCCCC1	0 (no)

====

Test: growth inhibitors of H69AR lung tumor, primary screen, human, duplicate replicates (AID 580);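 note: 100% = mean luminescence of untreated wells and 0% = no signal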
Details: H69AR lung tumor cells viability, ATP luminescence, 72 h; at 10 µM; stronger effect = lower value

MOLECULE	viability [%]
CCOC(=O)c1ccc(NS(=O)C23CC4CC(CC(C4)C2)C3)cc1 (configuration not stated)	87.6
Cc1[nH]n(C(N)=S)c(=O)c1C(c1ccccc1)C(C#N)C#N (configuration not stated)	91.6
Cc1ccc(Cn2nnc(C(=O)Nc3cccc(C)c3C)c2N)cc1	86.2
CCOC(=O)c1cnc(-n2nc(C)cc2C)nc1N1CC(C)OC(C)C1 (configuration not stated)	86.1
N#CC1=C(N)N2C(=C(C#N)C13CCCCC3)SC1CCCCC12O (configuration not stated)	76.1
Cc1onc(-c2ccccc2Cl)c1C(=O)NCCn1c(C)cc2ccccc21	83.3
Cn1c(CN2CCCCC2)nc2cc(NC(=O)c3ccccc3)ccc21	88.5
